# ASSAY_TARGET: Platelet-derived growth factor receptor alpha (Homo sapiens) (UniProt P16234)
# Sequence (P16234 whole entry): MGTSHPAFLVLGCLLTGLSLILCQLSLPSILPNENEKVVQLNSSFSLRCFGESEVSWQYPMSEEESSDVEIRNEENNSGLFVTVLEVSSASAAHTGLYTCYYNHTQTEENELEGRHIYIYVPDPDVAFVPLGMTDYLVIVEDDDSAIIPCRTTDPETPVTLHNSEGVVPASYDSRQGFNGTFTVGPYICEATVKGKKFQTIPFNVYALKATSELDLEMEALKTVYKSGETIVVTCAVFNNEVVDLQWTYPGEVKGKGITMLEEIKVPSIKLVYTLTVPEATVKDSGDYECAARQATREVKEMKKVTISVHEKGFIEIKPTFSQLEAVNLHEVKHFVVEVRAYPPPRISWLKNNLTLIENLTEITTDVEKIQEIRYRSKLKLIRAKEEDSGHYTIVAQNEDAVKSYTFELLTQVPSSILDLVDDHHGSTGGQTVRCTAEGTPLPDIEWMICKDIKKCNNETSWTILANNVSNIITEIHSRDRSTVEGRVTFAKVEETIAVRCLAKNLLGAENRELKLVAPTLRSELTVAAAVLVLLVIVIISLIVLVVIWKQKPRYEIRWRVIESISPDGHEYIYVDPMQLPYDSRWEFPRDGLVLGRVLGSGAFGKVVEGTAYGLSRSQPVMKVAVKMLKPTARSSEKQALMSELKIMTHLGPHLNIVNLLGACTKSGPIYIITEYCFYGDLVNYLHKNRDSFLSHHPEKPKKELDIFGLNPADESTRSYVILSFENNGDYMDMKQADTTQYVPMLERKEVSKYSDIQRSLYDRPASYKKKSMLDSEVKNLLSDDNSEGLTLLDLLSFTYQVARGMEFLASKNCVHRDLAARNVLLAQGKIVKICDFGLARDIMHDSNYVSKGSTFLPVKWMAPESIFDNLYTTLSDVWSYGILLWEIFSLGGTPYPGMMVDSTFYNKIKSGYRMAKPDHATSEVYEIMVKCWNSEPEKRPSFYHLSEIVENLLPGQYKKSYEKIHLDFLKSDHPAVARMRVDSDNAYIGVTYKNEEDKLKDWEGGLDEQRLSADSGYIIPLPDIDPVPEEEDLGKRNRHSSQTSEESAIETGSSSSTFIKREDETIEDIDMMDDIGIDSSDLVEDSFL
# ASSAY_EXPLANATION: Inhibition of human PDGFRalpha at 1 uM relative to control; values are per cent of control
residual activity by entry:
RESULT_TYPE: residual activity (%)

>>> value("O=C1NC(=O)C2=C1c1cn(c3ccccc13)CCCc1cc(nc(N3CCCC3)c1)CCCn1cc2c2ccccc21")
126
>>> value("O=C1NC(=O)C2=C1c1cn(c3ccccc13)CCCc1ccc(c(N3CCCC3)n1)CCCn1cc2c2ccccc21")
113
>>> value("CN(C)c1cc2cc(n1)CCCn1cc(c3ccccc31)C1=C(C(=O)NC1=O)c1cn(c3ccccc13)CCC2")
119
>>> value("CN(C)c1nc2ccc1CCCn1cc(c3ccccc31)C1=C(C(=O)NC1=O)c1cn(c3ccccc13)CC2")
107

====

# Organism: Mus musculus
# ASSAY_EXPLANATION: Inhibition of mouse MAPK2 at 1 uM relative to control; values are per cent of control
Entries and their residual activity values follow.
RESULT_TYPE: residual activity

>>> value("O=C1NC(=O)C2=C1c1cn(c3ccccc13)CCCc1ccc(c(N3CCCC3)n1)CCCn1cc2c2ccccc21")
"99%"
>>> value("O=C1NC(=O)C2=C1c1cn(c3ccccc13)CCCc1cc(nc(N3CCCC3)c1)CCCn1cc2c2ccccc21")
"103%"
>>> value("CN(C)c1cc2cc(n1)CCCn1cc(c3ccccc31)C1=C(C(=O)NC1=O)c1cn(c3ccccc13)CCC2")
"95%"
>>> value("CN(C)c1nc2ccc1CCCn1cc(c3ccccc31)C1=C(C(=O)NC1=O)c1cn(c3ccccc13)CC2")
"95%"

====

# ASSAY_TARGET: UniProt P06241
# Sequence (P06241 2-537 limits assumed): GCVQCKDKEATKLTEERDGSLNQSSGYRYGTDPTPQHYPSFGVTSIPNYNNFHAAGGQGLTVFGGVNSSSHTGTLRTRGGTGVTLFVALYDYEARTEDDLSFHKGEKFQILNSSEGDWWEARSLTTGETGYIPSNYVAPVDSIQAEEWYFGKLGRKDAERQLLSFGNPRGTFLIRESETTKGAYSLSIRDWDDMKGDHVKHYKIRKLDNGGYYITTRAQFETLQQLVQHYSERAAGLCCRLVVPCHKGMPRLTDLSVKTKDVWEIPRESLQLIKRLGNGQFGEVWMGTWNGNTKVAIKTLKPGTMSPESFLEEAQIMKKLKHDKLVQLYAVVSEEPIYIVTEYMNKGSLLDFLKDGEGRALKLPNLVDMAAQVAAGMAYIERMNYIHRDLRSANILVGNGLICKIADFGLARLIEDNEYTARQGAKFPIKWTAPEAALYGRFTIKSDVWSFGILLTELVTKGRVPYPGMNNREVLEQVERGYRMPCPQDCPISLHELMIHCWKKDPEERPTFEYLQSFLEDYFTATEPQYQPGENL
# ASSAY_EXPLANATION: Inhibition of human Fyn at 1 uM relative to control; values are per cent of control
RESULT_TYPE: residual activity

>>> value("O=C1NC(=O)C2=C1c1cn(c3ccccc13)CCCc1ccc(c(N3CCCC3)n1)CCCn1cc2c2ccccc21")
"103%"
>>> value("CN(C)c1cc2cc(n1)CCCn1cc(c3ccccc31)C1=C(C(=O)NC1=O)c1cn(c3ccccc13)CCC2")
"106%"
>>> value("CN(C)c1nc2ccc1CCCn1cc(c3ccccc31)C1=C(C(=O)NC1=O)c1cn(c3ccccc13)CC2")
"103%"
>>> value("O=C1NC(=O)C2=C1c1cn(c3ccccc13)CCCc1cc(nc(N3CCCC3)c1)CCCn1cc2c2ccccc21")
"106%"

====

We begin with a simple list: items and their reported residual activity.
# Species: Homo sapiens
# ASSAY_EXPLANATION: Residual activity of human CDK2/Cyclin A at 1 uM relative to control
RESULT_TYPE: residual activity (%)

>>> value("O=C1NC(=O)C2=C1c1cn(c3ccccc13)CCCc1cc(nc(N3CCCC3)c1)CCCn1cc2c2ccccc21")
88
>>> value("O=C1NC(=O)C2=C1c1cn(c3ccccc13)CCCc1ccc(c(N3CCCC3)n1)CCCn1cc2c2ccccc21")
88
>>> value("CN(C)c1nc2ccc1CCCn1cc(c3ccccc31)C1=C(C(=O)NC1=O)c1cn(c3ccccc13)CC2")
120
>>> value("CN(C)c1cc2cc(n1)CCCn1cc(c3ccccc31)C1=C(C(=O)NC1=O)c1cn(c3ccccc13)CCC2")
80
